B1: Receptor-interacting serine/threonine-protein kinase 2, residues 438 to 518; numbered along this chain, O43353 (parent)
chain: QWIQSKREDIVNQMTEACLNQSLDALLSRDLIMKEDYELVSTKPTRTSKVRQLLDTTDIQGEEFAKVIVQKLKDNKQMGLQ

Variants of: B1
EXPERIMENT: abundance fitness (aPCA) (normalised: wild type 0, dead -1); higher = more abundant; growth selection in yeast, the domain comes from the species named
SETTINGS: Homo sapiens
Decide by abundance fitness: equal to or exceeding -0.2 means condition met, less means condition not met.

Would you please look over these solved cases?
> print(dat)
                              residue.codes     classification
1  QWIQSKREDIVNQMTEACLNQSLDALLSRDLIMKEDYELVSTKCTRTSKVRQLLDTTDIQGEEFAKVIVQKLKDNKQMGLQ [P44C]  condition not met
2  QWIQSKREDIVNQMTEACLNQSLDALLSRDLIMKEDGELVSTKPTRTSKVRQLLDTTDIQGEEFAKVIVQKLKDNKQMGLQ [Y37G]  condition not met
3  QWIQSKREDIVNQMTEACLNQSLDALLSRDLIMKEDYMLVSTKPTRTSKVRQLLDTTDIQGEEFAKVIVQKLKDNKQMGLQ [E38M]      condition met
4  QWIQSKREDIVNQMTEACLNQSLDALLSRDLIMKEDYELVSTKPTRTSKVRQLLDTLDIQGEEFAKVIVQKLKDNKQMGLQ [T57L]      condition met
5  QWIQSKREDIVNQMTEACLNQSLDALLSRDLIMKEDYELVSTKPTRTSKVRQLLDTTDIQGEEFAKVIVQKAKDNKQMGLQ [L72A]  condition not met
6  QWIQSKREDIVNQMTEACLNQSLDALLSRDLIMKEDYELVSTKPTRTSKVRQLLDTTDIQGEEFAKVKVQKLKDNKQMGLQ [I68K]  condition not met

Item QWIQSKREDIVNQMTEACLNQSLDALLSRDLIMKEDYELVSTKPTRASKVRQLLDTTDIQGEEFAKVIVQKLKDNKQMGLQ [T47A] with abundance fitness of -0.2 or above? condition met

Quick one: QWIQSKREDIVNQMTEACLNQSLDALLSRDLIMKEDYELVSTKPTRTGKVRQLLDTTDIQGEEFAKVIVQKLKDNKQMGLQ [S48G] condition met

Quick one: QWIQSKREDIVNQMTEACLNQSLDALLSRDLIMKEDYELVSTKPTRTSPVRQLLDTTDIQGEEFAKVIVQKLKDNKQMGLQ [K49P] condition not met
